Cited source for all entries: patent US20160002240A1

assay: Solubility in deionized water, UV absorbance at 254 nm with calibration curve
Could you please report measured Water solubility mg/mL (g/L) for the items listed next?

Request: Which Water solubility mg/mL (g/L) reading was recorded for the compound Nc1nc2c(ncn2COCCO)c(=O)[nH]1 [[N1,1,1,16][Acy] (3)] [trimethylhexadecylammonium acyclovir] ?
Response: 252.18 mg/mL (g/L)

Request: Record request: Water solubility mg/mL (g/L) value, item Nc1nc2c(ncn2COCCO)c(=O)[nH]1 [[H2Acy][Doc] (7)] [acyclovir docusate]
Response: 8.47 mg/mL (g/L)

Request: Please give the measured Water solubility mg/mL (g/L) for this compound: Nc1nc2c(ncn2COCCO)c(=O)[nH]1 [[Cho][Acy] (1)] [choline acyclovir]
Response: 1019.42 mg/mL (g/L)

Request: Return reported Water solubility mg/mL (g/L); argument: Nc1nc2c(ncn2COCCO)c(=O)[nH]1 [Acyclovir, reference compound]
Response: 1.42 mg/mL (g/L)

Request: // lookup Water solubility mg/mL (g/L) for Nc1nc2c(ncn2COCCO)c(=O)[nH]1 [[P4,4,4,4][Acy] (4)] [tetrabutylphosphonium acyclovir]
Response: 803.89 mg/mL (g/L)

---

Give T5%onset for every item shown.
test: Thermogravimetric analysis (thermal stability); assay type: physicochemical; conditions: Table 4; onset temperature of initial 5 wt % mass loss, nitrogen, 5° C./min
Numbers only here, please. The scale is °C.

Request: Recorded T5%onset for Nc1nc2c(ncn2COCCO)c(=O)[nH]1 [[P4,4,4,4][Acy] (4)] [tetrabutylphosphonium acyclovir] , please?
Response: 221

Request: Which T5%onset value belongs to Nc1nc2c(ncn2COCCO)c(=O)[nH]1 [[N4,4,4,4][Acy] (5)] [tetrabutylammonium acyclovir] ?
Response: 132

Request: Request the reported T5%onset associated with Nc1nc2c(ncn2COCCO)c(=O)[nH]1 [[N1,1,1,16][Acy] (3)] [trimethylhexadecylammonium acyclovir]
Response: 150

Request: What value of T5%onset has been recorded for this entry: Nc1nc2c(ncn2COCCO)c(=O)[nH]1 [Acyclovir, reference compound]
Response: 240

Request: Which T5%onset is reported for this molecule? Cl.Nc1nc2c(ncn2COCCO)c(=O)[nH]1 [[H2Acy]Cl (6), acyclovir hydrochloride]
Response: 156

Request: May I ask what T5%onset has been recorded for Nc1nc2c(ncn2COCCO)c(=O)[nH]1 [[N4,4,4,1][Acy] (2)] [tributylmethylammonium acyclovir] ?
Response: 115

Request: Name the reported T5%onset value associated with the molecule Nc1nc2c(ncn2COCCO)c(=O)[nH]1 [[H2Acy][Doc] (7)] [acyclovir docusate]
Response: 122

Request: Consider the molecule Nc1nc2c(ncn2COCCO)c(=O)[nH]1 [[Cho][Acy] (1)] [choline acyclovir] and give its measured T5%onset.
Response: 128

---

experiment: Solubility in deionized water, UV absorbance at 254 nm with calibration curve
Task for the reader: assign each of the following compounds its reported Water solubility.
Note: unit mg/mL is implicit; provide only the numeric part.

Request: GET /values?readout=Water solubility&item= Nc1nc2c(ncn2COCCO)c(=O)[nH]1 [[Cho][Acy] (1)] [choline acyclovir]
Response: 1019.42

Request: Can you share its Water solubility? I mean this compound: Nc1nc2c(ncn2COCCO)c(=O)[nH]1 [[P4,4,4,4][Acy] (4)] [tetrabutylphosphonium acyclovir]
Response: 803.89

Request: Entry Nc1nc2c(ncn2COCCO)c(=O)[nH]1 [Acyclovir, reference compound] has what Water solubility?
Response: 1.42

Request: What Water solubility value was documented for this compound, Nc1nc2c(ncn2COCCO)c(=O)[nH]1 [[H2Acy][Doc] (7)] [acyclovir docusate] ?
Response: 8.48

Request: Which Water solubility reading was recorded for the compound Nc1nc2c(ncn2COCCO)c(=O)[nH]1 [[N1,1,1,16][Acy] (3)] [trimethylhexadecylammonium acyclovir] ?
Response: 252.18
